measured.on: PIK3CA (human)
assay.remarks: Assessment of Cell Proliferation in PC3 Cells
measurement.context: pc-3
pEC50: −log10 of the molar value.

[
  {
    "molecule": "CC(C)Cn1cc(-c2nc(N3CCOCC3)c3nc4n(c3n2)CCOC4(C)C)cn1",
    "pEC50": 5.00
  },
  {
    "molecule": "CN(C)c1cnc(-c2nc(N3CCOCC3)c3nc4n(c3n2)CCOC4(C)C)cn1",
    "pEC50": 5.00
  },
  {
    "molecule": "CC1(C)CN(c2nc(-c3cnc(N)nc3)nc3c2nc2n3CCOC2(C)C)CCO1",
    "pEC50": 5.85
  },
  {
    "molecule": "CC1(C)OCCn2c1nc1c(N3C[C@@H]4C[C@H]3CO4)nc(-c3cnc(N)nc3)nc12",
    "pEC50": 5.44
  },
  {
    "molecule": "Nc1ncc(-c2nc(N3CCOCC3)c3c(n2)N2CCC[C@H]2CO3)cn1",
    "pEC50": 5.70
  },
  {
    "molecule": "CC(C)NC(=O)Nc1ccc(-c2nc(N3CCOCC3)c3nc4n(c3n2)CCOC4(C)C)cc1",
    "pEC50": 5.89
  },
  {
    "molecule": "CC1(C)OCCn2c1nc1c(N3CCOCC3)nc(-c3ccc(N)cn3)nc12",
    "pEC50": 5.00
  },
  {
    "molecule": "CCNC(=O)Nc1ccc(-c2nc(N3CCOCC3)c3c(n2)C2(C)CCOC2N3C)cc1 (stereo not given)",
    "pEC50": 6.68
  },
  {
    "molecule": "FC(F)(F)C1OCCn2c1nc1c(N3CCOCC3)nc(-c3cccc4[nH]ncc34)nc12 (stereo not given)",
    "pEC50": 5.16
  },
  {
    "molecule": "CC1(C)CCn2c(nc3c(N4CCOCC4)nc(-c4cnc(N)nc4)nc32)O1",
    "pEC50": 5.74
  }
]

---

measured.on: PIK3CA (human)
assay.remarks: Assessment of Cell Proliferation in MDA-MB-361.1 Cells
measurement.context: mda-mb-361

[
  {
    "molecule": "CC1(C)CN(c2nc(-c3cnc(N)nc3)nc3c2nc2n3CCOC2(C)C)CCO1",
    "measured.on": "PIK3CA (human)",
    "EC50": "1.5 µM"
  },
  {
    "molecule": "CC(C)Cn1cc(-c2nc(N3CCOCC3)c3nc4n(c3n2)CCOC4(C)C)cn1",
    "measured.on": "PIK3CA (human)",
    "EC50": "10 µM"
  },
  {
    "molecule": "CC(C)NC(=O)Nc1ccc(-c2nc(N3CCOCC3)c3nc4n(c3n2)CCOC4(C)C)cc1",
    "measured.on": "PIK3CA (human)",
    "EC50": "1.2 µM"
  },
  {
    "molecule": "Nc1ncc(-c2nc(N3CCOCC3)c3c(n2)N2CCC[C@H]2CO3)cn1",
    "measured.on": "PIK3CA (human)",
    "EC50": "3.2 µM"
  },
  {
    "molecule": "CCNC(=O)Nc1ccc(-c2nc(N3CCOCC3)c3c(n2)C2(C)CCOC2N3C)cc1 (stereo not given)",
    "measured.on": "PIK3CA (human)",
    "EC50": "0.315 µM"
  }
]
